Biological target: NAMPT (Homo sapiens (Human), UniProt P43490)
Sequence (P43490 whole entry): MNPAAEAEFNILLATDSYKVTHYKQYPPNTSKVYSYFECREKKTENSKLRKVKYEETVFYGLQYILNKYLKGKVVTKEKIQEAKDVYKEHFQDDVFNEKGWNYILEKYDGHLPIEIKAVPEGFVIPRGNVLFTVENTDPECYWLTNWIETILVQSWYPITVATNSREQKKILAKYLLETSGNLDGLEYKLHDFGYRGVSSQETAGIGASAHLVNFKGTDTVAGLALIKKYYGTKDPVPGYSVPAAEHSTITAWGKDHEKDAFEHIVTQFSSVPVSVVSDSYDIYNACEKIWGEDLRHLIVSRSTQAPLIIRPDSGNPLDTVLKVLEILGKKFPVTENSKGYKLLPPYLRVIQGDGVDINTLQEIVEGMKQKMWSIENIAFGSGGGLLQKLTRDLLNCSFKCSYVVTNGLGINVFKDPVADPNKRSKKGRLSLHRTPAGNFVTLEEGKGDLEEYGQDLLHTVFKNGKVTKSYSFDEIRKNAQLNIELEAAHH
Test: Biochemical Inhibition Assay (NAMPT enzymatic reaction, NMN quantified by mass spectrometry)
Conditions: recombinant His-tagged NAMPT, 33 nM; 1 μM NAM; read-out: Biochem IC50
Method: Recombinant His-tagged NAMPT was produced in E. coli cells, purified over a Ni column, and further purified over a size-exclusion column by XTAL Biostructures. The NAMPT enzymatic reactions were carried out in Buffer A (50 mM Hepes pH 7.5, 50 mM NaCl, 5 mM MgCl2, and 1 mM THP) in 96-well V-bottom plates. […] Background and signal strength was determined by addition (or non-addition) of a serial dilution of NMN to a pre-quenched enzyme and cofactor mix. […] IC50s are Determined Using Excel and this Formula. […]
Readout type: IC50

1. Cc1cc(C)cc(S(=O)(=O)c2ccc(NC(=O)/C=C/c3cccnc3)cc2)c1 | 17.1 nM
2. Cc1ccncc1S(=O)(=O)c1ccc(NC(=O)/C=C/c2cccnc2)cc1 | 20.4 nM
3. COc1cc(F)cc(S(=O)(=O)c2ccc(NC(=O)/C=C/c3cccnc3)cc2)c1 | 3.2 nM
4. CC(C)CNC(=O)c1cccc(S(=O)(=O)c2ccc(NC(=O)/C=C/c3cccnc3)cc2)c1 | 21.3 nM
5. CCNC(=O)c1cccc(S(=O)(=O)c2ccc(NC(=O)/C=C/c3cccnc3)cc2)c1 | 7.3 nM
6. O=C(/C=C/c1cccnc1)Nc1ccc(S(=O)(=O)c2ccc(C(F)(F)F)c(Cl)c2)cc1 | 43.4 nM
7. O=C(/C=C/c1cccnc1)Nc1ccc(S(=O)(=O)c2cccc3ccsc23)cc1 | 16.1 nM
8. O=C(/C=C/c1cccnc1)NCc1ccc(S(=O)(=O)c2ccccc2)cc1 | 3 nM
9. CS(=O)(=O)c1ccc(S(=O)(=O)c2ccc(NC(=O)/C=C/c3cccnc3)cc2)cc1 | 11.4 nM
10. Cc1cc(S(=O)(=O)c2ccc(NC(=O)/C=C/c3cccnc3)cc2)ccc1F | 21.9 nM
11. O=C(/C=C/c1cccnc1)Nc1ccc(S(=O)(=O)c2cc(Cl)cc(C(F)(F)F)c2)cc1 | 8.1 nM
12. CCOCc1ccc(S(=O)(=O)c2ccc(NC(=O)/C=C/c3cccnc3)cc2)cc1 | 7.8 nM
13. O=C(/C=C/c1cccnc1)Nc1ccc(S(=O)(=O)c2cc(Cl)ccc2Cl)cc1 | 22.4 nM
14. O=C(/C=C/c1cccnc1)Nc1ccc(S(=O)(=O)c2ccccc2OC(F)(F)F)cc1 | 3.6 nM
15. CCS(=O)(=O)Nc1cccc(S(=O)(=O)c2ccc(NC(=O)/C=C/c3cccnc3)cc2)c1 | 8.1 nM
16. COc1ccc(S(=O)(=O)c2ccc(NC(=O)/C=C/c3cccnc3)cc2)cc1F | 11.5 nM
17. O=C(/C=C/c1cccnc1)Nc1ccc(S(=O)(=O)c2cccc3c2OCO3)cc1 | 16.1 nM
18. Cc1cc(C)n(-c2cccc(S(=O)(=O)c3ccc(NC(=O)/C=C/c4cccnc4)cc3)c2)n1 | 9.1 nM
19. COc1ccc(F)cc1S(=O)(=O)c1ccc(NC(=O)/C=C/c2cccnc2)cc1 | 14.5 nM
